Value source: patent US12441803B2

tested.target: T1, CD25 (Homo sapiens, UniProt P01589)
T1 sequence (P01589 22-272): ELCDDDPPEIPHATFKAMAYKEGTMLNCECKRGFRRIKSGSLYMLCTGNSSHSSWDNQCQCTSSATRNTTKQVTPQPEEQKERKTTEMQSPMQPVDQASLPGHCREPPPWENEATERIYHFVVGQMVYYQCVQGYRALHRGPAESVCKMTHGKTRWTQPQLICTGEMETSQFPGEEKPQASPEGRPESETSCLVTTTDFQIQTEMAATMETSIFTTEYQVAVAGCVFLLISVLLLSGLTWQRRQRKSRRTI
protocol.text: Binding of human IgG1 format antibodies to CD25 by Octet
condition.summary: read-out: Biosensor Measured CD25 Affinity
measured.endpoint: Kd (nM)
Quick reminder: number only, in nM, skip the unit.

| molecule | endpoint.unit | measured.number |
| --- | --- | --- |
| YU398-A11: anti-CD25 scFv clone, SEQ ID NO: 818 (protein, listed as Mus musculus) scFv: PGRSLRLSCAASGFTFSSYGMHWVRQAPGKGLEWVAVISYDGSNKYYADSVKGRFTISRDNSKNTLYLQMNSLRAEDTAVYYCAKGQGDGMDVWGQGTTVTVSSCAKGQGDGMDVWYELTQPPSASGTPGQRVTISCSGSSSNVGSRTVSWFQQLPGTAPKLLIYSNNLRPSGVPDRFSGSKSGTSASLAISGLQSEDEADYYCAAWDDSLIGHVFGTGTKVTVVCAAWDDSLIGHVF | nM | 12.1 |

Now for the molecule whose Kd we want.
Request: Returns the measured Kd for the input molecule. Input: YU400-B07: anti-CD25 scFv clone, SEQ ID NO: 822 (protein, listed as Mus musculus) scFv: PGRSLRLSCAASGFTFSSYGMHWVRQAPGKGLEWVAVISYDGSNKYYADSVKGRFTISRDNSKNTLYLQMNSLRAEDTAVYYCAKGDVNYGMDVWGQGTTVTVSSCAKGDVNYGMDVWSYVLTQPPSVSVAPGKTARITCGGNNIGSKSVHWYQQKPGQAPVLVVYDDTDRPSGIPERFSGSNSGNTATLTISRVEAGDEADYYCQVWDSSSDLLWVFGGGTKLAVLCQVWDSSSDLLWVF
Response: 57.8
